experimentalTarget: recombinant human NUDT5 (Homo sapiens, UniProt Q9UKK9)
assayInfo: NUDT5 inhibitor activity by malachite green reporter assay
Format: biochemical
details: Table 4; 6 nM NUDT5, 50 μM ADP-Ribose, 15 minutes at room temperature
Entries and their pIC50
Interpret pIC50 as the negative base-10 log of the concentration measured in mol/L.

[Q] Please report pIC50 with recombinant human NUDT5 (Homo sapiens, UniProt Q9UKK9) for item CN(C)CCN(C)c1nc2c(c(=O)n(C)c(=O)n2C)n1Cc1nnc(-c2ccc(Cl)c(Cl)c2)o1 .
[A] 7.02

[Q] Under recombinant human NUDT5 (Homo sapiens, UniProt Q9UKK9), report pIC50 for Cc1ccc(-c2cc(Cn3c(Cl)nc4c3c(=O)n(C)c(=O)n4C)no2)cc1
[A] 5.42

[Q] System recombinant human NUDT5 (Homo sapiens, UniProt Q9UKK9). Read-out pIC50. Item COc1cc(-c2nnc(Cn3c(N4CCC(C(N)=O)CC4)nc4c3c(=O)n(C)c(=O)n4C)o2)ccc1C . Report value.
[A] 7.48

Further cases:
[Q] Lab note: recombinant human NUDT5 (Homo sapiens, UniProt Q9UKK9) assay, enter pIC50 for COc1cc(-c2nnc(Cn3c(SCCN)nc4c3c(=O)n(C)c(=O)n4C)o2)ccc1C here
[A] 7.31

[Q] Supply pIC50 measured with recombinant human NUDT5 (Homo sapiens, UniProt Q9UKK9) for Cc1cc(-c2nnc(Cn3c(Cl)nc4c3c(=O)n(C)c(=O)n4C)o2)ccc1Cl .
[A] 7.19

[Q] Under recombinant human NUDT5 (Homo sapiens, UniProt Q9UKK9): report pIC50 of Cn1c(=O)c2c(nc(N3CCC(C(N)=O)CC3)n2Cc2nnc(-c3ccc(Cl)c(Cl)c3)o2)n(C)c1=O .
[A] 8.08

[Q] Give the observed pIC50 of COc1cccc(-c2nnc(Cn3c(Cl)nc4c3c(=O)n(C)c(=O)n4C)o2)c1 for recombinant human NUDT5 (Homo sapiens, UniProt Q9UKK9).
[A] 6.22

[Q] Would you please give the reported pIC50 of Cn1c(=O)c2c(nc(Cl)n2Cc2nnc(-c3ccccc3)o2)n(C)c1=O with recombinant human NUDT5 (Homo sapiens, UniProt Q9UKK9)?
[A] 5.45

----------
experimentalTarget: recombinant human NUDT5 (Homo sapiens)
assayInfo: NUDT5 inhibitor activity by malachite green reporter assay
Type: biochemical
details: Table 4; 6 nM NUDT5, 50 μM ADP-Ribose, 15 minutes at room temperature
pIC50: −log10 of the molar value.
Label condition met when pIC50 >= 7; otherwise condition not met.

[Q] Reported pIC50 reaches at least 7 for Cn1c(=O)c2c(nc(N3CCNCC3)n2Cc2nnc(-c3cccnc3)o2)n(C)c1=O ?
[A] condition not met

[Q] Given Cn1c(=O)c2c(nc(NCC3CCN(C(=N)N)CC3)n2Cc2nnc(-c3ccc(Cl)c(Cl)c3)o2)n(C)c1=O , state whether its pIC50 is at least 7.
[A] condition met

[Q] pIC50 >= 7 for Cn1c(=O)c2c(nc(N3CCNCC3)n2Cc2nnc(-c3ccc4[nH]ncc4c3)o2)n(C)c1=O ?
[A] condition not met

[Q] Evaluate COc1ccc(-c2nnc(Cn3c(N4CCNCC4)nc4c3c(=O)n(C)c(=O)n4C)o2)cc1OC : pIC50 at minimum 7?
[A] condition not met

[Q] Please check the record COc1cc(-c2nnc(Cn3c(N4CCC(CN)CC4)nc4c3c(=O)n(C)c(=O)n4C)o2)ccc1C and state if its pIC50 is at or above 7.
[A] condition met

Turning now to a further compound:
[Q] Does pIC50 meet or surpass 7 for COc1cc(-c2nnc(Cn3c(NCCNS(C)(=O)=O)nc4c3c(=O)n(C)c(=O)n4C)o2)ccc1C ?
[A] condition not met

----------
# pIC50 values compiled below
experimentalTarget: recombinant human NUDT5 (Homo sapiens)
assayInfo: NUDT5 inhibitor activity by malachite green reporter assay
Type: biochemical
details: Table 3; 6 nM NUDT5, 50 μM ADP-Ribose, 15 minutes at room temperature
pIC50 here: minus log base 10 of the concentration, concentration in moles per litre.

Sample answers from the record:
[Q] Return the recorded pIC50 value; entry: Cn1c(=O)c2c(nc(SC3CCCCC3)n2Cc2nnc(-c3ccc(Cl)c(Cl)c3)o2)n(C)c1=O
[A] 7.18

[Q] Item C[C@H]1CN(c2nc3c(c(=O)n(C)c(=O)n3C)n2Cc2nnc(-c3ccc(Cl)c(Cl)c3)o2)CCN1 : provide pIC50
[A] 7.92

[Q] Provide only the value of recorded pIC50 for CC1CN(c2nc3c(c(=O)n(C)c(=O)n3C)n2Cc2nnc(-c3ccc(Cl)c(Cl)c3)o2)CCN1 (stereo not drawn)
[A] 7.75

[Q] Give the value of pIC50 reported for the following: CN(C)C1CCN(c2nc3c(c(=O)n(C)c(=O)n3C)n2Cc2nnc(-c3ccc(Cl)c(Cl)c3)o2)CC1
[A] 7.83

[Q] Consider the compound CCCCCCN1CCN(c2nc3c(c(=O)n(C)c(=O)n3C)n2Cc2nnc(-c3ccc(Cl)c(Cl)c3)o2)CC1 . State its measured pIC50.
[A] 6.36

Here's the next entry for you.
[Q] Consider the compound Cn1c(=O)c2c(nc(N3CCCCC3)n2Cc2nnc(-c3ccc(Cl)c(Cl)c3)o2)n(C)c1=O . State its measured pIC50.
[A] 7.82

----------
experimentalTarget: recombinant human NUDT5 (Homo sapiens)
assayInfo: NUDT5 inhibitor activity by malachite green reporter assay
Format: biochemical
details: Table 4; 6 nM NUDT5, 50 μM ADP-Ribose, 15 minutes at room temperature
// NB: equality with 600 nM counts as not met; only IC50 strictly below is met

Some solved entries appear below for comparison.
[Q] Lab log: compare recorded IC50 with 600 nM; is it strictly lower for Cn1c(=O)c2c(nc(Cl)n2Cc2nnc(-c3ccc(Cl)cc3)o2)n(C)c1=O ?
[A] not met

[Q] is_below(IC50, 600 nM) for Cn1c(=O)c2c(nc(N3CCN(C(=O)OC(C)(C)C)CC3)n2Cc2nnc(-c3ccc(N)cc3)o2)n(C)c1=O ?
[A] not met

[Q] Is it true that IC50 reported for COc1ccc(-c2cc(Cn3c(Cl)nc4c3c(=O)n(C)c(=O)n4C)on2)cc1 is less than 600 nM?
[A] not met

[Q] IC50 under 600 nM? Item: COc1ccc(-c2cc(Cn3c(N4CCNCC4)nc4c3c(=O)n(C)c(=O)n4C)on2)cc1
[A] met

[Q] Hello, I'm reviewing records and need to know if IC50 of Cn1c(=O)c2c(nc(Cl)n2Cc2nnc(-c3ccc(F)cc3)o2)n(C)c1=O is below 600 nM. Could you check?
[A] not met

[Q] Threshold test, IC50 < 600 nM: Cn1c(=O)c2c(nc(N3CCNCC3)n2Cc2nnc(-c3ccccc3)o2)n(C)c1=O
[A] met

More entries:
[Q] Is IC50 strictly under 600 nM for the entry COc1cc(-c2nnc(Cn3c(N4CCCNCC4)nc4c3c(=O)n(C)c(=O)n4C)o2)ccc1C ?
[A] met

[Q] Consider Cn1c(=O)c2c(nc(N3CCNCC3)n2Cc2nnc(-c3ccc(F)cc3)o2)n(C)c1=O . Does its IC50 lie strictly below 600 nM?
[A] met

[Q] Consider COc1ccc(-c2nnc(Cn3c(Cl)nc4c3c(=O)n(C)c(=O)n4C)o2)cc1 . Does its IC50 lie strictly below 600 nM?
[A] not met

----------
experimentalTarget: recombinant human NUDT5 (Homo sapiens, UniProt Q9UKK9)
assayInfo: NUDT5 inhibitor activity by malachite green reporter assay
Type: biochemical
details: Table 3; 6 nM NUDT5, 50 μM ADP-Ribose, 15 minutes at room temperature
Experimental: NUDT5 inhibitors were evaluated using a coupled enzymatic assay with detection of inorganic phosphate (Pi) using the malachite green assay. […] Formation of Pi is quantified based on the green complex (that absorbs at 630 nm) formed between malachite green and molybdate according to published procedure (Baykov, A. A., Evtushenko, O. A. and Avaeva, S. M., Anal Biochem, 171, 266-270 (1988)). […] IC50 values were determined by curve fitting using ExcelFit.
Mark rule met only for IC50 values smaller than 30 nM; exact matches and larger values are rule not met.

Worked examples follow.
[Q] Problem: For the compound Cn1c(=O)c2c(nc(N3CCCC3)n2Cc2nnc(-c3ccc(Cl)c(Cl)c3)o2)n(C)c1=O , is IC50 under 30 nM?
[A] rule not met

[Q] Criterion: IC50 strictly below 30 nM. Is it met by Cn1c(=O)c2c(nc(N3CC(NC(=O)OC(C)(C)C)C3)n2Cc2nnc(-c3ccc(Cl)c(Cl)c3)o2)n(C)c1=O ?
[A] rule not met

[Q] Record Cn1c(=O)c2c(nc(NCCO)n2Cc2nnc(-c3ccc(Cl)c(Cl)c3)o2)n(C)c1=O : is its IC50 strictly below 30 nM?
[A] rule met

---
[Q] # check: IC50 < 30 nM for CCCCN1CCN(c2nc3c(c(=O)n(C)c(=O)n3C)n2Cc2nnc(-c3ccc(Cl)c(Cl)c3)o2)CC1
[A] rule not met

[Q] Please check: IC50 for Cn1c(=O)c2c(nc(N3CCC(O)C3)n2Cc2nnc(-c3ccc(Cl)c(Cl)c3)o2)n(C)c1=O (stereo not shown) , strictly under 30 nM or not?
[A] rule met

[Q] Would you kindly verify if IC50 of Cn1c(=O)c2c(nc(N3CCC(CO)CC3)n2Cc2nnc(-c3ccc(Cl)c(Cl)c3)o2)n(C)c1=O is strictly less than 30 nM?
[A] rule met

[Q] hey, is IC50 for Cn1c(=O)c2c(nc(N3CC4CCCCC4C3)n2Cc2nnc(-c3ccc(Cl)c(Cl)c3)o2)n(C)c1=O (stereo not shown) lower than 30 nM or not?
[A] rule not met

[Q] A record lists COC1CCN(c2nc3c(c(=O)n(C)c(=O)n3C)n2Cc2nnc(-c3ccc(Cl)c(Cl)c3)o2)CC1 . Is its IC50 below 30 nM?
[A] rule met

[Q] Quick check: does Cn1c(=O)c2c(nc(N3CCN(CCN)CC3)n2Cc2nnc(-c3ccc(Cl)c(Cl)c3)o2)n(C)c1=O have IC50 under 30 nM?
[A] rule not met

# credit: patent US20210128566A1
